- target.desc: melanocortin 3 receptor (human, UniProt P41968 1-323)
- Sequence (P41968 whole entry): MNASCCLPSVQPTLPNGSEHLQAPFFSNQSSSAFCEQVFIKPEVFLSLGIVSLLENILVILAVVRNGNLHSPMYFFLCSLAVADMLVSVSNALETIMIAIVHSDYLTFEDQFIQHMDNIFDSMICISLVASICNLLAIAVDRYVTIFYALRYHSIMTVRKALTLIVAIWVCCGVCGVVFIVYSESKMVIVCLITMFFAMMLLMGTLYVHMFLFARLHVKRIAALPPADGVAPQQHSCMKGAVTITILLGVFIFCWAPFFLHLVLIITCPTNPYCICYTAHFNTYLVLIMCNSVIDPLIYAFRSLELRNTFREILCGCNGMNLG
- method: cell-based or functional assay
Bridges are numbered along the chain shown (N, C = ends). [ ]: non-standard residue; d: D form. Pen = CC(C)(S)[C@H](N)C(=O)O; hCys = N[C@@H](CCS)C(=O)O; Dap = NC[C@H](N)C(=O)O
measure: EC-50 (nM), cAMP accumulation
Field format: number, assumed nM, no unit text.

[[record]]
binder = "Ac-REQ[dF]RW[Dap]-NH2 (lactam 2-7; SMILES CC(=O)N[C@@H](CCCNC(=N)N)C(=O)N[C@H]1CCC(=O)NC[C@@H](C(N)=O)NC(=O)[C@H](Cc2c[nH]c3ccccc23)NC(=O)[C@H](CCCNC(=N)N)NC(=O)[C@@H](Cc2ccccc2)NC(=O)[C@H](CCC(N)=O)NC1=O) [001576C, Ac-Arg-(Glu-Gln-D-Phe-Arg-Trp-Dpr)-NH2]"
recorded_number = 1.16


Now examine the next entry.
Task item: So what's the measured EC-50 (nM), cAMP accumulation for this one? Ac-R[hCys]Q[dF]RW[Pen]-NH2 (disulfide 2-7) [001555C, Ac-Arg-(hCys-Gln-D-Phe-Arg-Trp-Pen)-NH2]
Reply: 0.52
